# Target or system: Human recombinant MMP-13 (Homo sapiens, UniProt P45452)
# Construct: made in house; host or cells: baculovirus / insect cells
# Experiment notes: In vitro MMP inhibition, IC50 determination (fluorogenic substrate I)
# Type: biochemical
# Test settings: value outside parenthesis
Endpoint name: IC50 (nM)

* O=C(NO)C1(S(=O)(=O)c2ccc(OCCc3cccc(-c4cc(Cl)cc(Cl)c4)c3)cc2)CCOCC1 | 349

a: COCCN1CCC(C(=O)NO)(S(=O)(=O)c2ccc(OCCCn3nnc(-c4ccc(S(C)(=O)=O)cc4)n3)cc2)CC1
b: O=C(NO)C1(S(=O)(=O)c2ccc(OCCCc3nnc(-c4ccc(-c5ccccc5)cc4)o3)cc2)CCOCC1
Between these two entries, a and b , state which has the higher IC50. Your answer should be the label attached to the chosen record. a
(a: 0.8 nM, b: 0.5 nM)
